Tested on: MAP kinase cascade activation
measurement-description: Reporter activity reflecting MAP kinase cascade activation, corrected using an internal control (Elk1-GAL4 luciferase reporter in 293-EBNA cells)
Format: cell-based, human
settings: 25 ng/well expression plasmid; 293-EBNA cells; 24 hours
measured-attribute: Reporter activity corrected with internal control, as a factor of null vector (S/B value)

{"molecule": "26 (protein, listed as Homo sapiens) MALALAALAAVEPACGSRYQQLQNEEESGEPEQAAGDAPPPYSSISAESAAYFDYKDESGFPKPPSYNVATTLPSYDEAERTKAEATIPLVPGRDEDFVGRDDFDDADQLRIGNDGIFMLTFFMAFLFNWIGFFLSFCLTTSAAGRYGAISGFGLSLIKWILIVRFSTYFPGYFDGQYWLWWVFLVLGFLLFLRGFINYAKVRKMPETFSNLPRTRVLFIY", "obs-value": 1.6}
{"molecule": "60 (protein, listed as Homo sapiens) MLGSGFKAERLRVNLRLVINRLKLLEKKKTELAQKARKEIADYLAAGKDERARIRVEHIIREDYLVEAMEILELYCDLLLARFGLIQSMKELDSGLAESVSTLIWAAPRLQSEVAELKIVADQLCAKYSKEYGKLCRTNQIGTVNDRLMHKLSVEAPPKILVERYLIEIAKNYNVPYEPDSVVMVPPQECERMGEALWEDHQRWLDSGREHVVKHPSLVLRFQT", "obs-value": 2.0}
{"molecule": "44 (protein, listed as Homo sapiens) MEDEEVAESWEEAADSGEIDRRLEKKLKITQKESRKSKSPPKVPIVIQDDSLPAGPPPQIRILKRPTSNGVVSSPNSTSRPTLPVKSLAQREAEYAEARKRILGSASPEEEQEKPILDRPTRISQPEDSRQPNNVIRQPLGPDGSQGFKQRR", "obs-value": 9.1}
{"molecule": "28 (protein, listed as Homo sapiens) MTSFEDADTEETVTCLQMTVYHPGQLQCGIFQSISFNREKLPSSEVVKFGRNSNICHYTFQDKQVSRVQFSLQLFKKFNSSVLSFEIKNMSKKTNLIVDSRELGYLNKMDLPYRCMVRFGEYQFLMEKEDGESLEFFETQFILSPRSLLQENNWPPHRPIPEYGTYSLCSSQSSSPTEMDENES", "obs-value": 1.8}
{"molecule": "68 (protein, listed as Homo sapiens) MLKEEQEVAMLGVPHNPAPPMSTVIHIRSETSVPDHVVWSLFNTLSMNTCCLGFIAFAYSVKSRDRKMVGDVTGAQAYASTAKCLNIWALILGIFMTILLIIIPVLVVQAQR", "obs-value": 2.3}
{"molecule": "18 (protein, listed as Homo sapiens) MPVQLSEHPEWNESMHSLRISVGGLPVLASMTKAADPRFRPRWKVILTFFVGAAILWLLCSHRPAPGRPPTHNAHNWRLGQAPANWYNDTYPLSPPQRTPAGIRYRIAVIADLDTESRAQEENTWFSYLKKGYLTLSDSGDKVAVEWDKDHGVLESHLAEKGRGMELSDLIVFNGKLYSVDDRTGVVYQIEGSKAVPWVILSDGDGTVEKGFKAEWLAVREIVRKRWRLVKQVSHVGVLGQWIQR", "obs-value": 1.8}
{"molecule": "4 (protein, listed as Homo sapiens) MSHEKSFLVSGDNYPPPNPGYPGGPQPPMPPYAQPPYPGAPYPQPPFQPSPYGQPGYPHGPSPYPQGGYPQGPYPQGGYPQGPYPQEGYPQGPYPQGGYPQGPYPQSPFPPNPYGQPQVFPGQDPDSPQHGNYQEEGPPSYYDNQDFPATNWDDKSIRQAFIRKVFLVLTLQLSVTLSTVSVFTFVAEVKGFVRENVWTYYVSYAVFFISLIVLSCCGDFRRKHPWNLVALSVLTASLSYMVGMIASFYNTEAVIMAVGITTAVCFTVVIFSMQTRYDFTSCMGVLLVSMVVLFIFAILCIFIRNRILEIVYASLGALLFTCFLAVDTQLLLGNKQLSLSPEEYVFAALNLYTDIINIFLYILTIIGRAKE", "obs-value": 2.1}
{"molecule": "50 (protein, listed as Homo sapiens) MAKERRRAVLELLQRPGNARCADCGAPDPDWASYTLGVFICLSCSGIHRNIPQVSKVKSVRLDAWEEAQVEFMASHGNDAARARFESKVPSFYYRPTPSDCQLLREQWIRAKYERQEFIYPEKQEPYSAGYREGFLWKRGRDNGQFLSRKFVLTEREGALKYFNRNDAKEPKAVMKIEHLNATFQPAKIGHPHGLQVTYLKDNSTRNIFIYHEDGKEIVDWFNALRAARFHYLQVAFPGASDADLVPKLSRNYLKEGYMEKTGPKQTEGFRKRWFTMDDRRLMYFKDPLDAFARGEVFIGSKESGYTVLHGFPPSTQGHHWPHGITIVTPDRKFLFACETESDQREWVAAFQKAVDRPMLPQEYAVEAHFKHKP", "obs-value": 2.3}
{"molecule": "146 (protein, listed as Homo sapiens) MNHIVQTFSPVNSGQPPNYEMLKEEQEVAMLGAPHNPAPPTSTVIHIRSETSVPDHVVWSLFNTLFMNTCCLGFIAFAYSVKSRDRKMVGDVTGAQAYASTAKCLNIWALILGIFMTILLVIIPVLVVQAQR", "obs-value": 3.5}
{"molecule": "52 (protein, listed as Homo sapiens) MAASRLELNLVRLLSRCEAMAAEKRDPDEWRLEKYVGALEDMLQALKVHASKPASEVINEYSWKVDFLKGMLQAEKLTSSSEKALANQFLAPGRVPTTARERVPATKTVHLQSRARYTSEMRSELLGTDSAEPEMDVRKRTGVAGSQPVSEKQSAAELDLVLQRHQNLQEKLAEEMLGLARSLKTNTLAAQSVIKKDNQTLSHSLKMADQNLEKLKTESERLEQHTQKSVNWLLWAMLIIVCFIFISMILFIRIMPKLK", "obs-value": 2.3}

All values here come from patent US20030092037A1.
